We begin with a simple list: items and their reported Population Hoechst High Intensity Objects (%).
test system: HEK-293T; experiment: Multiplex assay against HEK293T; assay type: toxicity, cell-based; details: human, 24 h, 1 µM, compound concentration 1 uM, replicate 2
observation-type: Population Hoechst High Intensity Objects (%)

- compound: "COc1ccccc1CN[C@H]1C2CCN(CC2)[C@H]1C(c1ccccc1)c1ccccc1"
  value-observed: "3%"
- compound: "Cc1nc(N2CC[C@H](O)C2)ncc1-c1cc(C(F)(F)F)cc2[nH]ncc12"
  value-observed: "2%"
- compound: "C=CC(=O)Nc1cccc(Sc2nc(Nc3ccc(N4CCN(C)CC4)cc3)ncc2Cl)c1"
  value-observed: "10%"
- compound: "COc1cc2ncn(-c3cc(OCc4ccccc4C(F)(F)F)c(C(N)=O)s3)c2cc1OC [GW843682X]"
  value-observed: "4%"
- compound: "CNC(=O)Nc1ccc2c(c1)[C@@]1(CC2)OC(=O)N(CC(=O)N(Cc2ccc(F)cc2)[C@@H](C)C(F)(F)F)C1=O"
  value-observed: "3%"
- compound: "O=C(c1cc2c(cc1F)OC(c1ccc(F)cc1)(c1ccc(Cl)cc1Cl)O2)N1CCOCC1 (configuration not stated)"
  value-observed: "3%"
- compound: "CC(C)c1noc(N2CCC(COc3ccc(-c4ccc(S(C)(=O)=O)cc4)nc3)CC2)n1"
  value-observed: "3%"
- compound: "CC(C)(C)NC[C@H](O)COc1nsnc1N1CCOCC1"
  value-observed: "1%"
- compound: "CC(C)Oc1ccccc1C(=O)Nc1ccccc1C(=O)Nc1cccc(S(=O)(=O)C(F)(F)F)c1"
  value-observed: "3%"
- compound: "COC(=O)C1=C(C)NC(C)=C(C(=O)OCCCN2CCC(c3ccccc3)(c3ccccc3)CC2)[C@H]1c1cccc([N+](=O)[O-])c1"
  value-observed: "3%"
- compound: "CC(C)CC(=O)Nc1[nH]nc2c1CN(C(=O)C1CCN(C)CC1)C2(C)C"
  value-observed: "3%"
- compound: "Cc1cc(C)c(-n2ccn3nc(-c4cccnc4)cc23)cc1NC(=O)c1cc(C#N)cc(S(F)(F)(F)(F)F)c1"
  value-observed: "4%"
- compound: "Cl.O=C(O)c1cc(-c2ccc(C3CCNCC3)cc2)c2ccc(-c3ccc(C(F)(F)F)cc3)cc2c1"
  value-observed: "4%"
- compound: "C[C@]12CC[C@@H]3c4ccc(O)cc4CC[C@H]3[C@@H]1CC[C@@H]2O"
  value-observed: "3%"
- compound: "CCOC(=O)Nc1cc(-c2ccc(C)c(NS(C)(=O)=O)c2)nn2c(C)nnc12"
  value-observed: "4%"
- compound: "O=c1[nH]c2ccccc2n1C1CCN(Cc2ccc(-c3[nH]c4cc5ncnc5cc4nc3-c3ccccc3)cc2)CC1"
  value-observed: "4%"
- compound: "O=c1cc(N2CCOCC2)oc2c(-c3cccc4c3sc3ccccc34)cccc12"
  value-observed: "4%"
